experiment: Solubility of BSA-containing formulations (post vortexing, 30 min and overnight at 18° C.); assay type: physicochemical; conditions: BSA-containing formulation, 18 °C, aqueous with cosolvent or surfactant or cyclodextrin, compound 2 mg/mL; BSA 15 mg/mL; after 30 minutes incubation at 18° C.; read-out: Solubility of BSA-containing formulations after 30 min incubation at 18° C., 15 mg/mL
attribute.measured: solubility at 30 min

**Query** State the recorded solubility at 30 min for this entry: CCN1/C(=C/C=C/c2sc3ccccc3[n+]2CC)Sc2ccccc21 [JAC-B1, 3′,3′-Diethylthiacarbocyanine iodide]
**Result** < 2000 µg/mL

----------
experiment: Solubility of BSA-containing formulations (post vortexing, 30 min and overnight at 18° C.); assay type: physicochemical; settings: BSA-containing formulation, 18 °C, aqueous with cosolvent or surfactant or cyclodextrin, compound 2 mg/mL; BSA 60 mg/mL; after 30 minutes incubation at 18° C.; read-out: Solubility of BSA-containing formulations after 30 min incubation at 18° C., 60 mg/mL
Hi there, I'd appreciate the recorded solubility at 30 min for every entry that follows.

**Query** State the recorded solubility at 30 min for this entry: CCN1/C(=C/C=C/c2oc3ccccc3[n+]2CC)Oc2ccccc21 [JAC-R1, 3′,3′-Diethyloxacarbocyanine iodide]
**Result** < 2000 µg/mL

**Query** State the recorded solubility at 30 min for this entry: `CCN1/C(=C/C(C)=C/c2sc3ccccc3[n+]2CC)Sc2ccccc21`
**Result** < 2000 µg/mL

This collection of values is drawn from patent US20230150960A1.
